protocol: log P by HPLC, EEC Directive 79/831 Annex V.A8, method a)
Assay type: physicochemical
condition_set: cell marked a): HPLC, reversed-phase C18, acetonitrile/water with formic acid, gradient 10% to 95% acetonitrile

- compound: "Cn1nc(C(F)(F)F)c(C(F)(F)F)c1C(=O)Nc1ccc(Cl)c(C(=O)NC2(C#N)CC2)c1 [Example 9]"
  logP: "2.85 ^a)"
- compound: "CN(C(=O)c1c(C(F)(F)F)c(C(F)(F)C(F)(F)F)nn1C)c1ccc(Cl)c(C(=O)N(C)C2(C#N)CC2)c1 [Example 5]"
  logP: "3.59 ^a)"
- compound: "Cn1nc(C(F)(F)C(F)(F)F)c(C(F)(F)F)c1C(=O)Nc1ccc(Cl)c(C(=O)NC2(C#N)CCC2)c1 [Example 7]"
  logP: "3.55 ^a)"
- compound: "CCN(C(=O)c1cc(N(C)C(=O)c2c(C(F)(F)F)c(C(F)(F)C(F)(F)F)nn2C)ccc1Cl)C1(C#N)CC1 [Example 4]"
  logP: "3.77 ^a)"
- compound: "CN(C(=O)c1c(Cl)c(C2(Cl)CC2)nn1C)c1ccc(Cl)c(C(=O)NC2(C#N)CC2)c1 [Example 3]"
  logP: "2.46 ^a)"
